- targetSystem: human MC4R (Homo sapiens, UniProt P32245)
- Construct: expressed in transfected cells
- Sequence (P32245 whole entry): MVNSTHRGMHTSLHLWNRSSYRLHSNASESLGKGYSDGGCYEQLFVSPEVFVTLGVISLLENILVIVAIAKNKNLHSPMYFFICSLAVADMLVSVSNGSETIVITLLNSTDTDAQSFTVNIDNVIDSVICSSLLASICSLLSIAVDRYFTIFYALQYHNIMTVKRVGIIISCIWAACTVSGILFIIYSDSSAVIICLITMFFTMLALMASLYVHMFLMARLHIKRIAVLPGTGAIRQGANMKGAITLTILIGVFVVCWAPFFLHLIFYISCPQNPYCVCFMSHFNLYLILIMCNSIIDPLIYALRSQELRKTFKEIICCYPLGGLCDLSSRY
- assayComment: Functional cAMP assay (CisBio HTRF) in BHK cells expressing human MC4R
- Type: cell-based
- details: MC1R cAMP EC50 divided by MC4R cAMP EC50
- Experimental: In order to assess the potency of the compounds on human MC1R and human MC4R cAMP signalling was measured. cAMP induction was measured by c-AMPdynamic2 assay, HTRF 62AM4PEC system from CisBio for the human MC1R and human MC4R according to the protocol provided by the vendor. BHK cells expressing the human MC1 or MC4 receptor were generated by stable transfection with expression vectors encoding the cDNA of either MC1R or MC4R. […]
Positions of bridges follow the written chain, without caps; N, C: chain ends. Non-standard residues stand in square brackets, D forms with d. Residues, ends and D or L forms follow the SMILES beside them. Pen = CC(C)(S)[C@H](N)C(=O)O; Thz = O=C(O)[C@@H]1CSCN1; Aib = CC(C)(N)C(=O)O
Consider the following compounds; for each one, report its MC1R/MC4R cAMP EC50 ratio.

Suppose we examine the compound C[C@@H]1NC(=O)[C@H](C)NC(=O)[C@H](CCCCN)NC(=O)[C@H](CCCCN)NC(=O)[C@H]2NC(=O)[C@H](Cc3c[nH]c4ccccc34)NC(=O)[C@H](Cc3c[nH]cn3)NC(=O)[C@@H](Cc3ccccc3)NC(=O)[C@H](Cc3c[nH]cn3)NC(=O)[C@@H]3CSCN3C(=O)[C@H](CSSC2(C)C)NC(=O)[C@H](Cc2c[nH]c3ccccc23)NC1=O [Chem. 117] (cyclo(AAWC[Thz]H[dF]HW[Pen]KK); disulfide 4-10) ; what MC1R/MC4R cAMP EC50 ratio value has been reported?
841

Further, for CC1(C)NC(=O)[C@@H]2CSSC[C@H](NC(=O)[C@H](Cc3c[nH]c4ccccc34)NC(=O)[C@H](CCCCN)NC(=O)[C@@H](Cc3ccccc3)NC(=O)[C@H](Cc3c[nH]cn3)NC1=O)C(=O)NC(C)(C)C(=O)N[C@@H](Cc1c[nH]cn1)C(=O)N[C@H](Cc1ccccc1)C(=O)N[C@@H](CCCCN)C(=O)N[C@@H](Cc1c[nH]c3ccccc13)C(=O)N2 [Chem. 40] (cyclo([Aib]H[dF]KWC[Aib]H[dF]KWC); disulfide 6-12) ?
38
